Measured on: Nuclear receptor coactivator 1 (Homo sapiens) (UniProt Q15788)
Sequence (Q15788 whole entry, looked up): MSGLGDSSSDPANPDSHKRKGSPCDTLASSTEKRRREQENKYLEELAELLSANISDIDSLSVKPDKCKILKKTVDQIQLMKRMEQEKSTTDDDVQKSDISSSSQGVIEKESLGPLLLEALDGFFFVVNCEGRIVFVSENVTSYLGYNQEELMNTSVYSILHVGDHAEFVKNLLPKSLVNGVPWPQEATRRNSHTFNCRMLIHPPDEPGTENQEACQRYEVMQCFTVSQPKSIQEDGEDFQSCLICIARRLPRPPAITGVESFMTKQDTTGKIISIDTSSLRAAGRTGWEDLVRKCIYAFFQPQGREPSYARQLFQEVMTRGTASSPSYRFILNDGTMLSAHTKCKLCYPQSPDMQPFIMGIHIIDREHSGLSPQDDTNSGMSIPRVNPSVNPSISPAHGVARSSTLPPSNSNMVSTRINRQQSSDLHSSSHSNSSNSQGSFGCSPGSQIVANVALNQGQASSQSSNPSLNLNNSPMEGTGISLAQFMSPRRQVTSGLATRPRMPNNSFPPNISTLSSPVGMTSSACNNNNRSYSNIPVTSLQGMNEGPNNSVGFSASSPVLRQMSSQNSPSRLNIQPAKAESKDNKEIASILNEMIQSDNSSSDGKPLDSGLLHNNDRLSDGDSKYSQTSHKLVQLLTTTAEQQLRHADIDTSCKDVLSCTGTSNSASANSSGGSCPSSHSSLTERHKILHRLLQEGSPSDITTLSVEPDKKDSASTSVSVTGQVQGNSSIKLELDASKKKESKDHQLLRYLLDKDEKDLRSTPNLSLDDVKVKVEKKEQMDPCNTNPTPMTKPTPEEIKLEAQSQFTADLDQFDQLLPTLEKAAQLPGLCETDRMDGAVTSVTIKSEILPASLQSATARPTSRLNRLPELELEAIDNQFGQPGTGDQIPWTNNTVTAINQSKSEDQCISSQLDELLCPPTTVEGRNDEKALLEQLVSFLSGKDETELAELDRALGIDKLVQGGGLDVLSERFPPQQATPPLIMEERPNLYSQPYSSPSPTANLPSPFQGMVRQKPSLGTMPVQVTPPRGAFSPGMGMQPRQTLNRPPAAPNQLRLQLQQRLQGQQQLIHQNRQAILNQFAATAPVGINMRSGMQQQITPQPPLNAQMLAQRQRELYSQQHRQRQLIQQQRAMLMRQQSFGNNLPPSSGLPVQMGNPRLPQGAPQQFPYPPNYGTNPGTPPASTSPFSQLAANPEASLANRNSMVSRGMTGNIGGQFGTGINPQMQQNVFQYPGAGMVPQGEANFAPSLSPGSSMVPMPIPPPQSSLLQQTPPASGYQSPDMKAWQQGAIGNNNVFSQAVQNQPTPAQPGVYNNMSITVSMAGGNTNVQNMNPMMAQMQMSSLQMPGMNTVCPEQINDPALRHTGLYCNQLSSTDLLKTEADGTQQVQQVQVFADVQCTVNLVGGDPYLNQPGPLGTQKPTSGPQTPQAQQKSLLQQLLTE
Experiment description: SRC1 coactivator transcriptional activity inhibitors, confirmation, cell-based, luminescence, quadruplicate (AID 588820);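 also: 0% = DMSO wells and 100% = gossypol 36 µM treated wells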
Assay conditions: HEK293 GAL4-SRC1 luciferase reporter, at 3.6 µM
Active and inactive are the calls of the source.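 The calls were made as follows: active = mean inhibition above 46.68%, the untreated control wells mean plus 3 SD; inactive = the rest.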
Classes used: 1 (active), 0 (inactive)

Cc1ccc(/C=C2\SC(=S)N(CCCC(=O)Nc3ccccn3)C2=O)cc1	1
Cc1cc(C)c(C(=O)/C=C/c2cccc3ccccc23)c(=O)[nH]1	1
Cc1nc2c(-c3ccccc3)cnn2c(N)c1-c1ccccc1	0
O=c1[nH]cc(F)c(=O)[nH]1	0
Cc1cc(CNC(=O)c2cccc([N+](=O)[O-])c2C)c2ccccc2n1	0
CCOc1ccc(CCNC(=O)COC(=O)c2cc(OC)c(OC)cc2[N+](=O)[O-])cc1OCC	0
Cc1ccc(-c2nnn(CC(=O)N(Cc3cccs3)C(C(=O)NC3CCCC3)c3ccncc3)n2)cc1 (stereo not drawn)	1
Cc1cc(C(C)(C)C)cc(C)c1C[n+]1ccc2ccccc2c1	0
Cc1ccc2oc(C(=O)NC3CCS(=O)(=O)C3)cc(=O)c2c1 (stereo not drawn)	0
O=C(COc1ccc(Cl)cc1Cl)NN1C(=O)C2C3C=CC(C3)C2C1=O (stereo not drawn)	0
COc1cc(S(=O)(=O)NCc2ccccc2Cl)ccc1-n1cnnn1	0
COc1cccc2c1C(=N)c1c(O)c3c(c(O)c1C2=O)CC(O)(C(C)=O)CC3OC1CC(N)C(O)C(C)O1 (stereo not drawn)	0
Cc1cc2c(OCC(O)CNCc3ccco3)cccc2[nH]1 (stereo not drawn)	0
Cc1ccc(N(CCC#N)C(=O)CCl)cc1C	0
COc1cc2cc(C(=O)Nc3ccc4c(c3)OCCO4)[nH]c2cc1OC	0
COc1cc(-c2cnc3c(NC(C)=O)cc(-c4ccc(N5CCN(C)CC5)cc4)cn23)cc(OC)c1OC	0
COc1cccc(OCCn2cc(C(C)=O)c3ccccc32)c1	0
O=C(Nc1ccc(C(=O)N2CCOCC2)cc1)Nc1cccc(C(F)(F)F)c1	1
CCc1nnc(NC(=O)CCC(=O)NCc2ccccc2Cl)s1	0
CC1Sc2ccc(C(=O)Nc3ccc(S(=O)(=O)N(C)C)cc3)cc2NC1=O (stereo not drawn)	0
Cn1nnnc1Sc1ncnc2scc(-c3cccc(Br)c3)c12	0
Cc1cc(C(=O)COC(=O)C2=COCCO2)c(C)n1-c1ccccc1	0
COc1ccc(C(=O)CN2C(=O)c3ccccc3S2(=O)=O)cc1	0
COc1ccc(S(=O)(=O)N2CCOCC2)cc1NC(=O)CCNC(=O)c1ccc([N+](=O)[O-])cc1	1
COC(=O)c1ccsc1NC(=O)CN1CCN(c2ncccn2)CC1	0
COC1C(CO)OC(n2c3c(Cl)cccc3c3c4c(c5c6cccc(Cl)c6[nH]c5c32)C(=O)NC4=O)C(O)C1O (stereo not drawn)	0
c1ccc(Cc2nnc3sc(-c4ccncc4)nn23)cc1	0
CC(C)n1cnc2c(NCc3ccccc3)cc(N[C@H](C)CO)cc21	0
CC1CCc2c(sc3ncnc(N4CCOCC4)c23)C1 (stereo not drawn)	0
Cc1csc(N=Cc2ccc([N+](=O)[O-])o2)n1	0
CCN1/C(=C/c2ccc3cccc(C)c3[n+]2CC)Sc2ccccc21	0
Cc1ccc(C(C)C)c(OCc2ccc(C(=O)N/N=C/c3cccc(O)c3O)cc2)c1	0
CCN(CC)c1ccc(/C=N/NC(=O)CNC(=O)C2COc3ccccc3O2)c(O)c1 (stereo not drawn)	0
CN1CCN(C(=O)CCN2C(=O)/C(=C/c3cccc(Br)c3)SC2=S)CC1	0
Cc1nnc(N2CCCC(C(=O)NCc3ccc(OC(C)C)cc3)C2)c2nn(-c3ccccc3)c(C)c12 (stereo not drawn)	0
Cc1cc2[nH]c3c(c[n+](C)c4ccccc34)c2cc1C	0
Cc1nc2cc(NCc3nc4ccccc4n3Cc3ccccc3)ccc2n1C	0
CCN(CC)c1ccc(C=Nc2cc(C)ccc2C)c(O)c1	0
CC1CCc2nc(NC(=O)CSc3nc4ccccc4o3)sc2C1 (stereo not drawn)	0
Cc1cccc(NC(=O)CSCC(=O)N2CCCc3ccccc32)c1	0
COc1ccc(Cn2c(-c3ccc(C)cc3)c[n+]3ccccc23)cc1	0
NC(CO)C(=O)NNCc1ccc(O)c(O)c1O (stereo not drawn)	0
COc1ccc(S(=O)(=O)N(C)C[C@H]2Oc3c(NC(=O)Nc4c(C)noc4C)cccc3C(=O)N([C@H](C)CO)C[C@@H]2C)cc1	0

###

System: transactivating tegument protein VP16 (Human herpesvirus 1), Gal4-VP16 luciferase reporter
Experiment description: VP16 transactivation inhibitors, counter-screen for SRC3 inhibitor project, cell-based, luminescence, high throughput (AID 588794)
Assay conditions: mammalian cells, VP16-driven luciferase reporter luminescence; at 3.6 µM
Active and inactive are the calls of the source. Cut-off read from the data, not from the text of the source: active = inhibition above about 30%; inactive = the rest.
Outcome codes: Yes (active), No (inactive)

CC1=C(C(=O)OCc2ccc3c(c2)OCO3)C(c2ccc(F)cc2)NC(=O)N1 (stereo not given)	Yes
CC1CN(Cc2ccccc2)c2nc3c(c(=O)n(CC(N)=O)c(=O)n3C)n2C1 (stereo not given)	No
CCN1/C(=C/c2ccc3cc(C)ccc3[n+]2CC)Sc2cc(C)c(C)cc21	Yes
O=C(NNC1=Nc2cccc3cccc1c23)c1ccccc1Br	No
Cc1ccc(CSC(Nc2ccc(F)cc2)=C(C#N)C#N)cc1	No

###

Experiment description: VP16 transactivation reporter inhibitors, counter-screen for LRH-1 inverse agonist project, cell-based, luminescence, high throughput (AID 651615)
Assay conditions: Gal4-VP16 luciferase reporter cells, at 3.6 µM, hits give high values
Value type: inhibition (%)

O=C(Nc1ccccc1Cl)c1ccc([N+](=O)[O-])o1	-5.01
NS(=O)(=O)c1ccc(NC(=O)/C=C/c2ccc3c(c2)OCO3)cc1	66.2
O=C(COc1ccc2c3c(c(=O)oc2c1)CCC3)NCc1ccncc1	-2.51
COc1ccc(-c2cc(C(F)F)n3ncc(C(=O)N4CCc5ccccc5C4)c3n2)cc1	-2.06
On1ccccc1=S	87.5
COc1ccc(NC(=O)COc2ccc(N(C)S(=O)(=O)c3ccc(Cl)cc3)cc2)cc1OC	51.1
COc1ccc(CCNC(=O)c2ccc(CSc3ccc(Cl)cc3)o2)cc1OC	30.3
Cc1ccc(-c2csc(NC(=O)c3ccc([N+](=O)[O-])o3)n2)cc1	-19.4
CC(=O)Nc1cc(-c2ccc(S(C)(=O)=O)cc2)cn2c(-c3ccc(F)c(Cl)c3)cnc12	3.98
CN(C)c1ccc(CNc2ncnc3sccc23)cc1	42.5
S=C(NCCCCN(Cc1ccc(Cl)cc1)c1ccc(Br)cn1)NCCCc1cnc[nH]1	86.5
O=C1c2ccccc2-n2c1nc1ccccc1c2=O	51
Clc1ccc(-n2ncc3c(N4CCCCCC4)ncnc32)cc1	43
O=C(CSc1nc2sc3c(c2c(=O)n1-c1ccccc1)CCCC3)NCc1ccco1	3.41
O=[N+]([O-])c1cccc(-c2nc(-c3cccs3)c(-c3cccs3)[nH]2)c1	-12.5
NC(=S)NN=Cc1cc(-c2cccc(N)c2)ccn1	72.4
CCCN(CCC)C1=CC(=[N+]2CCCC2)CC(C)(C)C1	86.6
O=C1C=C(NCc2ccco2)C2(CCCCC2)O1	10.7
O=C(CSc1nc2ccccc2c(=O)n1-c1ccc(F)cc1)Nc1ccc(N2CCOCC2)cc1	6.2
CCn1c(=O)[nH]c(=O)c2c(N)c(C(=O)c3cc(F)ccc3F)sc21	10.3
OCCCNc1nccc(-c2cc(Nc3cccc(Cl)c3)ncn2)n1	93.2
COC(=O)c1c(NC(=O)c2cccc([N+](=O)[O-])c2)sc(C(N)=O)c1C	69.2
CCOCC(=O)Nc1cccc(C(=O)OCC)c1	2.72

###

Measured on: Nuclear receptor coactivator 2 (Homo sapiens)
Experiment description: SRC2 coactivator transcriptional activity inhibitors, confirmation, cell-based, luminescence, HEK293, triplicate (AID 652008);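 also: 0% = DMSO-treated cells and 100% = Gossypol at 36 µM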
Assay conditions: HEK293 GAL4-SRC2 luciferase reporter, at 8.9 µM, hits give high values
Classification field: enter y for inhibition values not below 30%, n for values below it.

Cc1ccc(C(=O)Nc2cnc3ccccc3c2)cc1	y
CC(C)(C)C(=O)Nc1ccc(NC(=O)c2ccco2)nc1	y
O=S1(=O)CCS(=O)(=O)C1c1ccccc1	n
COc1ccc(C(=O)NCCNc2nc3cc(C)cc(C)c3cc2C#N)c(OC)c1	y
COc1ccc(C(=O)Nn2c(SCC(=O)N3CCC(C)CC3)nc3ccccc3c2=O)cc1	n
CCOC(=O)c1cccc2c1-c1ccccc1/C2=N/O	n

###

Measured on: Steroidogenic factor 1 (Homo sapiens)
Experiment description: SF1 (NR5A1) inverse agonists, counter-screen for LRH-1 inverse agonist project, cell-based, luminescence, high throughput (AID 651614);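 also: cells cotransfected with StAR promoter reporter and SF1 expression vector; 0% = vehicle on cells with receptor and 100% = vehicle on cells lacking receptor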
Assay conditions: cell-based SF1 luciferase reporter, at 3.6 µM
The source made the active and inactive calls. No stated cut-off is given here; in the data, active means inhibition above about 44%; inactive means the rest.
Outcome codes: active, inactive

Cc1ccc2c(c1C)-c1c(ccc(C)c1C)C(=O)C2=O	active
CN(Cc1cccs1)c1nc(-c2cccnc2)nc2ccccc12	active
O=C(Nc1ccc(S(=O)(=O)N2CCOCC2)cc1)c1ccc([N+](=O)[O-])o1	active
CCOc1cccc(/C=N/NC(=S)Nc2ccccc2[N+](=O)[O-])c1O	active
CN(C(=O)COc1ccccc1C(=O)NCCOc1ccccc1)c1ccccc1	active
CC(C(=O)OCC(=O)Nc1ccc2c(c1)OCO2)N1C(=O)c2ccccc2C1=O (centres undefined)	active
CCCCc1c(O)nc(SCC(=O)Nc2ccc(OC)cc2)n(-c2ccc(C)c(C)c2)c1=O	active
Cn1cccc1C(=O)OCC(=O)N1CCN(c2ccccc2)CC1	inactive
O=C(NCCOc1cccnc1)c1ccc(OC2CCN(Cc3ccccn3)CC2)cc1	active
Cc1cccc(NC(=O)c2ccc([N+](=O)[O-])o2)c1C	active
CCCc1cc(=O)oc2cc(OCC(=O)NCCc3ccc(S(N)(=O)=O)cc3)ccc12	active
CCOc1ccccc1O[C@H](c1ccccc1)[C@H]1CNCCO1	inactive
CCCc1nc(SCC(=O)c2ccc(F)cc2)c2ccccc2n1	active
CN(C)c1ccc(Sc2ccc3nc(N)nc(N)c3c2)cc1	active

Data provenance: PubChem BioAssay
